Data provenance is patent US11603355B2.

tested.system: NaV1.7 (Homo sapiens, UniProt Q15858)
Construct: expressed in transfected cells; host or cells: HEK293 (tetracycline-inducible)
Sequence (Q15858 whole entry): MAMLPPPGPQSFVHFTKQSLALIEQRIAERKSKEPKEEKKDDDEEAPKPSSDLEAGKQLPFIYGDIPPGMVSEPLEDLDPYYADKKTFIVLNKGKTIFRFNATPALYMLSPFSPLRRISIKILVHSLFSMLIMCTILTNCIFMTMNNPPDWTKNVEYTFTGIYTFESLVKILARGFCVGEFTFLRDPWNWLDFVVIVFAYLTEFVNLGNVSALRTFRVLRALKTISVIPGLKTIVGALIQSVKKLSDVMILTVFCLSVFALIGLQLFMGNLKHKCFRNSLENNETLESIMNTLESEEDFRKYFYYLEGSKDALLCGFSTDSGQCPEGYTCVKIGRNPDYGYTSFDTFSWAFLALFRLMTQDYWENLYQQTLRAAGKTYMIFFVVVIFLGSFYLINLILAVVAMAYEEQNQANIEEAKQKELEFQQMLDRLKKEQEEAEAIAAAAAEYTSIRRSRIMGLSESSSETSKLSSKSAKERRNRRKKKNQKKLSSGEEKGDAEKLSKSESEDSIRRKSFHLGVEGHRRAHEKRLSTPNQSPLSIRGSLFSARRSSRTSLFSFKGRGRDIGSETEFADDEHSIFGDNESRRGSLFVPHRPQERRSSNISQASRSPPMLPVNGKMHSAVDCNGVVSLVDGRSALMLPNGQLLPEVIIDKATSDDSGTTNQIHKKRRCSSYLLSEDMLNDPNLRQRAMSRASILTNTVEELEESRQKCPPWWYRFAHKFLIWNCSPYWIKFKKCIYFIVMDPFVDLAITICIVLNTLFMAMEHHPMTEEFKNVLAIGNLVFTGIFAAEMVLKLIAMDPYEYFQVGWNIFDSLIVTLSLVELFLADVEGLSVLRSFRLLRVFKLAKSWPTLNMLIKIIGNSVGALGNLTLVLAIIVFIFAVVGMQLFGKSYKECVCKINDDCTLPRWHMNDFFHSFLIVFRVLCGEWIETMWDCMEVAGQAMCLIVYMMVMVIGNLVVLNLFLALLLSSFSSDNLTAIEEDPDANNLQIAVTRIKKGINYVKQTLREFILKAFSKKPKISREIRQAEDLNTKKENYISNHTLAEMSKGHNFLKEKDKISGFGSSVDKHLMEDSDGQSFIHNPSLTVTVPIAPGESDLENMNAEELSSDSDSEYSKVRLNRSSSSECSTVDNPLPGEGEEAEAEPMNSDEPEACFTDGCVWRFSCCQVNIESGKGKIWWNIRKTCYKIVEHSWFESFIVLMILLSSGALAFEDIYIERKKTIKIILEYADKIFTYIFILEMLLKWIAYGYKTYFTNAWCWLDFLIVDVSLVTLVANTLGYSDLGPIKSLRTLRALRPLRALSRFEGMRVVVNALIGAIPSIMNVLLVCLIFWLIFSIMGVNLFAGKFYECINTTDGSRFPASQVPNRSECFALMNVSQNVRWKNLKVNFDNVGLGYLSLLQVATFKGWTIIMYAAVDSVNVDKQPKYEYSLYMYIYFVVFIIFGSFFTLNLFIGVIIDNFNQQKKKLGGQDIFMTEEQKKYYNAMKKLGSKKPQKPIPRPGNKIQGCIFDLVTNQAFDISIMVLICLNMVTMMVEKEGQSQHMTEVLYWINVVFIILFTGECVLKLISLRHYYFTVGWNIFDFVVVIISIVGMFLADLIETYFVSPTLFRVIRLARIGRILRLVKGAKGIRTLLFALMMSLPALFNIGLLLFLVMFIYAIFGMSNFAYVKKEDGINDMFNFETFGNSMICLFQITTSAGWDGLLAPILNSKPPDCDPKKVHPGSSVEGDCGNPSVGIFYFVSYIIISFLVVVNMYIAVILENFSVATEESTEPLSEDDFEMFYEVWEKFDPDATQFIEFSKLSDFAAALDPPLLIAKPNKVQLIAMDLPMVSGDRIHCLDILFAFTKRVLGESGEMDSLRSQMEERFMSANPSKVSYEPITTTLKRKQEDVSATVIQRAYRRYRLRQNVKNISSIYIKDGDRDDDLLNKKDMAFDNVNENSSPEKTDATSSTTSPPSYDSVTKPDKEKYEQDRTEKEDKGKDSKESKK
assay.text: Automated patch clamp (Qube 384), internal block of NaV1.7
Assay type: cell-based
run.conditions: IC50, compound in internal solution, HEK293 cells, read-out: Nav1.7 Intracellular Inhibition
Where a name gives a salt, the structure may show the parent alone.
Measured IC50 values are reported for all entries that follow.

Please review the entries below; each comes with its answer.
1. Cc1cccc(C)c1NC(=O)C[N+]1(Cc2ccccc2)CCCC(C(=O)N(C)C)C1.[Br-] (centres unmarked) [Compound 65A] = 300 to 1000 nM
2. Br.CCCCOC(=O)C1CCC[N+](CC(=O)Nc2c(C)cccc2C)(Cc2ccccc2)C1 (centres unmarked) [Compound 49A] = 1000 to 3000 nM
3. CCCCNc1ccc(NC(=O)C[N+]2(Cc3ccccc3)CCCCCC2)cc1.O=C[O-] [Compound 41A, formate] = 3000 to 10000 nM
4. Cc1cccc(C)c1NC(=O)C[N+]1(Cc2ccccc2)CCCCCC1 = 300 to 1000 nM
5. Cc1cccc(C)c1C(=O)OCC[N+]1(Cc2ccccc2)CCCCCC1.[Br-] [Compound 82A] = 300 to 1000 nM
6. CC[N+](CC)(CCCc1ccccc1)CC(=O)Nc1c(C)cccc1C.[Br-] [Compound 86A] = 1000 to 3000 nM

Q. Give IC50 only, for COC(=O)C1CC[N+](CC(=O)Nc2c(C)cccc2C)(Cc2ccccc2)CC1.[Br-] (centres unmarked) [Compound 44A] , using NaV1.7 (Homo sapiens, UniProt Q15858) data.
A. < 300 nM

Q. Under NaV1.7 (Homo sapiens, UniProt Q15858), report IC50 for Cc1cccc(C)c1NC(=O)C[N+]1(Cc2ccccc2)CCCC(C(=O)N2CCCC2)C1 (centres unmarked) [Compound 62A]
A. 300 to 1000 nM

Q. # return IC50 for Cc1cccc(C)c1NC(=O)C[N+]1(Cc2ccccc2)CCCC(C(=O)N2CCCCC2)C1 (centres unmarked) [Compound 63A] , test system: NaV1.7 (Homo sapiens, UniProt Q15858)
A. 300 to 1000 nM

Q. Lab note: NaV1.7 (Homo sapiens, UniProt Q15858) assay, enter IC50 for Cc1cccc(C)c1N(C)C(=O)C[N+]1(Cc2ccccc2)CCCCCC1 [Compound 38A, formate] here
A. 1000 to 3000 nM

Q. Give IC50 only, for Cc1cccc(C)c1NC(=O)C[N+]1(Cc2ccccc2)CCCC(C(=O)NC2CCCC2)C1.[Br-] (centres unmarked) [Compound 60A] , using NaV1.7 (Homo sapiens, UniProt Q15858) data.
A. 1000 to 3000 nM

Q. Would you please give the reported IC50 of Cc1cccc(C)c1N1CCCC([N+]2(Cc3ccccc3)CCCC2)C1=O.[Br-] (centres unmarked) [Compound 91A] with NaV1.7 (Homo sapiens, UniProt Q15858)?
A. 1000 to 3000 nM

Q. Print NaV1.7 (Homo sapiens, UniProt Q15858) IC50 for CCCOC(=O)C1CCC[N+](CC(=O)Nc2c(C)cccc2C)(Cc2ccccc2)C1.[Br-] (centres unmarked) [Compound 47A] .
A. 1000 to 3000 nM

Q. Please report IC50 with NaV1.7 (Homo sapiens, UniProt Q15858) for item Cc1cccc(C)c1NC(=O)C[N+]1(Cc2ccccc2)CCCC(C(=O)NC(C)C)C1 (centres unmarked) [Compound 56A] .
A. 1000 to 3000 nM

Q. Jot down IC50 (NaV1.7 (Homo sapiens, UniProt Q15858)) of Cc1cccc(C)c1OC(=O)C[N+]1(Cc2ccccc2)CCCCCC1 [Compound 83A, 2,2,2-trifluoroacetate] .
A. 300 to 1000 nM

Q. Lab note: NaV1.7 (Homo sapiens, UniProt Q15858) assay, enter IC50 for CCC(C(=O)Nc1c(C)cccc1C)[N+]1(Cc2cccc(O)c2)CCCCC1 (centres unmarked) here
A. < 300 nM

Q. Answer briefly: IC50 recorded on NaV1.7 (Homo sapiens, UniProt Q15858) for CC[N+](CC)(CCS(=O)(=O)c1c(C)cccc1C)Cc1ccccc1 [Compound 87A]
A. 3000 to 10000 nM

Q. Report value only: IC50, NaV1.7 (Homo sapiens, UniProt Q15858), COc1cccc(C)c1NC(=O)C[N+]1(Cc2ccccc2)CCCCCC1 [Compound 71A]
A. 300 to 1000 nM

Q. // output IC50; input Cc1cccc(C)c1OCC[N+]1(Cc2ccccc2)CCCCCC1 [Compound 85A] ; system NaV1.7 (Homo sapiens, UniProt Q15858)
A. 1000 to 3000 nM

Q. GET IC50 | system: NaV1.7 (Homo sapiens, UniProt Q15858) | item: COC(=O)c1ccc(C[N+]2(CC(=O)Nc3c(C)cccc3C)CCCCC2)cc1.[Br-] [Compound 36A]
A. 3000 to 10000 nM

====

tested.system: NaV1.7 (Homo sapiens)
Construct: expressed in transfected cells; host or cells: HEK293 (tetracycline-inducible)
assay.text: Manual patch clamp, internal block of NaV1.7 current
Type: cell-based
run.conditions: % inhibition at 10 μM test concentration, compound in internal solution, HEK293 cells, read-out: Nav1.7 Intracellular Inhibition
inhibition at 10 µM by entry:

1. CCc1ccccc1C[N+]1(C(CC)C(=O)Nc2c(C)cccc2C)CCCCC1 (stereo not drawn) [Compound 21A] = > 95%
2. CCC(C(=O)Nc1c(C)cccc1C)[N+]1(Cc2ccsc2)CCCCC1 (stereo not drawn) [Compound 26A] = 70 to 95%

Now take the following compound into account.
Q. Provide only the value of recorded inhibition at 10 µM for CCC(C(=O)Nc1c(C)cccc1C)[N+]1(Cc2ccccc2C#N)CCCCC1 (stereo not drawn) [Compound 15A]
A. > 95%

====

tested.system: NaV1.7 (Homo sapiens)
Construct: expressed in transfected cells; host or cells: HEK293 (tetracycline-inducible)
assay.text: Automated patch clamp (Qube 384), internal block of NaV1.7
Type: cell-based
run.conditions: IC50, compound in internal solution, HEK293 cells, read-out: Nav1.7 Intracellular Inhibition
pIC50: −log10 of the molar value.
property.name: pIC50

Record excerpt, results attached:
1) Cc1cccc(C#N)c1NC(=O)C[N+]1(Cc2ccccc2)CCCCCC1.[Br-] [Compound 72A] = 6.00 to 6.52
2) Cc1cccc(C)c1S(=O)(=O)CC[N+]1(Cc2ccccc2)CCCCCC1 [Compound 88A] = 5.00 to 5.52

From here, focus on the item given below.
Q. Return reported pIC50 for target or system NaV1.7 (Homo sapiens), item CCNC(=O)C1CCC[N+](CC(=O)Nc2c(C)cccc2C)(Cc2ccccc2)C1.[Br-] (stereo not drawn) [Compound 54A] .
A. 6.00 to 6.52
